# SYSTEM_UNDER_TEST: BTK (Homo sapiens, UniProt Q06187)
# Sequence (Q06187 402-655 limits assumed): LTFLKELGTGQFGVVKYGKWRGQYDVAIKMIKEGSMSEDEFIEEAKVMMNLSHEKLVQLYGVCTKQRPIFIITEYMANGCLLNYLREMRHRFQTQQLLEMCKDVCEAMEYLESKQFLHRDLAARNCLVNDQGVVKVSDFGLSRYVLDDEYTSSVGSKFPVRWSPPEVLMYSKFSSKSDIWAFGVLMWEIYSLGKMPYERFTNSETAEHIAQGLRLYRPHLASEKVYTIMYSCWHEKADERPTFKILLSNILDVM
# ASSAY_NAME: biochemical
# ASSAY_CONDITIONS: read-out: BTK inhibition (%), 0.75 uM BTK, […] probe 3l, 15 min preincubation
Could you please report measured inhibition at 10 µM for the items listed next?
Give bare numbers, in %.

# count of solved cases: 4
CC(C)n1c([C@H](C)Nc2ncnc(N)c2C#N)cc2cccc(-c3ccc(=O)n(C)c3)c2c1=O [PCM-0215961] :: -11.6
COc1ccc(-c2oc3c(CC=C(C)C)c(O[C@@H]4O[C@H](CO)[C@@H](O)[C@H](O)[C@H]4O)cc(O)c3c(=O)c2O[C@@H]2O[C@@H](C)[C@H](O)[C@@H](O)[C@H]2O[C@@H]2OC[C@@H](O)[C@H](O)[C@H]2O)cc1 [PCM-0216511] :: -8.5
O=C(NO)c1ccc(CC(=O)N(CCO)c2ccccc2)cc1 [PCM-0215415] :: 10.8
COc1ccc(-c2coc3cc(O[C@@H]4O[C@H](CO)[C@@H](O)[C@H](O)[C@H]4O)ccc3c2=O)cc1O [PCM-0216381] :: -10

Look up inhibition at 10 µM for the entries below, preserving their order.
1. COc1cc(CO)ccc1O [PCM-0215042]
2. O=C(CNc1ccc2ccccc2c1)N/N=C/c1cc(Br)c(O)c(Br)c1O [PCM-0215592]

Ans.
1. 0
2. 47.9

For every record below, what is its inhibition at 10 µM?
1. CC/C=C(\C(=O)N[C@@H]1C(=O)N2C(C(=O)OCOC(=O)C(C)(C)C)=C(COC(N)=O)CS[C@H]12)c1csc(N)n1 [PCM-0215081]
2. CC#Cc1cncc(-c2ccc3c(c2)[C@@]2(N=C(C)C(N)=N2)C2(CCC(OC)CC2)C3)c1 (some centres unmarked) [PCM-0215755]
3. O=S(=O)(O)CCS [PCM-0086246]

Ans.
1: 8.6; 2: 0; 3: -3.1

---

# SYSTEM_UNDER_TEST: BTK (Homo sapiens)
# ASSAY_NAME: biochemical
# ASSAY_CONDITIONS: read-out: BTK inhibition (%), 0.75 uM BTK, […] probe 3l, 15 min preincubation
Can you tell me inhibition at 10 µM for the items I'm about to list?
One number for each entry, in %.

O=P(O)(O)C(O)(Cc1cccnc1)P(=O)(O)O :: -3.4
CCOC(=O)[C@H]1O[C@@H]1C(=O)N[C@@H](CC(C)C)C(=O)NCCC(C)C :: 14.7
COc1ccc(/C=C\c2cc(OC)c(OC)c(OC)c2)cc1OP(=O)(O)O :: -27.2
OC[C@H]1O[C@@H](Oc2ccc(O)cc2)[C@H](O)[C@@H](O)[C@@H]1O :: -6.2
Cc1csc(-c2nnc(Nc3ccc(Oc4ncccc4-c4ccnc(N)n4)cc3)c3ccccc23)c1 :: 97.9
C[C@@H](O)[C@H]1C(=O)N2C(C(=O)O)=C(S[C@@H]3CN[C@H](C(=O)N(C)C)C3)[C@H](C)[C@H]12 :: -14.8
COc1cc(/C=C/c2ccc(O)c(O)c2)cc(OC)c1 :: 36.6
C/C1=C\CC[C@H](C)C(=O)C[C@@H](C(C)C)C(=O)C1 :: -3.9

Query compound follows.
The reported value for `Cc1cc(C)cc(C(=O)NOCCCCCC(=O)NO)c1` in terms of inhibition at 10 µM is 9.3

---

# SYSTEM_UNDER_TEST: UniProtKB Q06187
# ASSAY_NAME: biochemical
# ASSAY_CONDITIONS: read-out: BTK inhibition (%), 0.75 uM BTK, […] probe 3l, 15 min preincubation
Provide the reported inhibition at 10 µM of each item.

Use the examples below as a reference point.
Clc1ccc(C2(c3ccc(-c4cn[nH]c4)cc3)CCNCC2)cc1 :: 6.9%
CN(CC(=O)N(Cc1ccc(C2CCCCC2)cc1)c1ccc(C(=O)O)c(O)c1)S(=O)(=O)c1c(F)c(F)c(F)c(F)c1F :: 82.6%
O=C(c1ccccc1)c1ccc2nc(NC(=O)c3csc(C4CCN(c5ncnc6ccsc56)CC4)n3)[nH]c2c1 :: 20.1%

Switching to the query record.
compound CC(C)(C)NC(=O)N[C@H](C(=O)N1C[C@H]2[C@@H]([C@H]1C(=O)NC(CC1CCC1)C(=O)C(N)=O)C2(C)C)C(C)(C)C (stereo partly shown) , inhibition at 10 µM observed: 8.6%

---

# SYSTEM_UNDER_TEST: BTK (Homo sapiens)
# ASSAY_NAME: biochemical
# ASSAY_CONDITIONS: read-out: BTK inhibition (%), 0.75 uM BTK, […] probe 3l, 15 min preincubation
Exercise: state measured inhibition at 10 µM for each of the compounds provided.
One number for each entry, in %.

Cc1ncc(-c2ccnc(Nc3ccc(S(C)(=O)=O)cc3)n2)n1C(C)C :: 48.3
CC(=O)NC[C@H]1CN(c2ccc(N3CCOCC3)c(F)c2)C(=O)O1 :: -23.3
CCCCCOc1ccccc1/C(=C\SC)n1ccnc1 :: -22.6
CCn1c(=O)c(-c2ccn[nH]2)cc2c(C)nc(N)nc21 :: 7.6

Below: the item to evaluate.
The compound identified as CN1CCCC(n2nc(Cc3ccc(Cl)cc3)c3ccccc3c2=O)CC1 (centres unmarked) registered its inhibition at 10 µM at 5.5

---

Hi there, I'd appreciate the recorded inhibition at 10 µM for every entry that follows.
# SYSTEM_UNDER_TEST: BTK (Homo sapiens, UniProt Q06187)
# ASSAY_NAME: biochemical
# ASSAY_CONDITIONS: read-out: BTK inhibition (%)
One number for each entry, in %.

Below, 2 compounds whose answers are already recorded.
COc1cc(C)[nH]c(=O)c1CNC(=O)c1c(C)n([C@H](C)C2CCOCC2)c2ccccc12 :: -24.7
CN1CCCCC1Cn1cc(C(=O)c2cc([N+](=O)[O-])ccc2I)c2ccccc21 (stereo not drawn) :: 22.6

Batch request: inhibition at 10 µM for each of the following compounds.
1. Cl[Te]1(Cl)(Cl)OCCO1
2. Cc1cc(C(=O)CN2CCCC2)c(C)n1-c1ccc(F)cc1

Ans.
1: 98.6; 2: 5.4

For each listed entry, give its inhibition at 10 µM.
1. COC(=O)C[C@](O)(CCC(C)(C)O)C(=O)O[C@@H]1C(OC)=C[C@]23CCCN2CCc2cc4c(cc2[C@H]13)OCO4
2. CCCCCCC(=O)O[C@H]1CC[C@H]2[C@@H]3CCC4=CC(=O)CC[C@]4(C)[C@H]3CC[C@]12C

Ans.
[-7.7, 6.2]

Count: 2. Required value per item: inhibition at 10 µM.
1. CC(C(=O)O)C(=O)O
2. CC1=C[C@@H]2C(=O)[C@]3(C=C(C)[C@H](O)[C@@]3(O)[C@@H]1O)[C@H](C)C[C@@H]1[C@H]2C1(C)C

Ans.
-6.2
3.9

I'm hoping you can list inhibition at 10 µM for every compound here, please.
1. O=C1C([C@@H]2O[C@H](CO)[C@@H](O)[C@H](O)[C@H]2O)=C(O)/C(=C(O)/C=C/c2ccc(O)cc2)C(=O)C1(O)[C@@H]1O[C@H](CO)[C@@H](O)[C@H](O)[C@H]1O (stereo partly drawn)
2. CCN1C[C@]2(COC)CC[C@H](OC)[C@]34C1[C@H](C[C@H]23)[C@@]1(O)C[C@H](OC)[C@H]2C[C@@H]4[C@@H]1[C@H]2O
3. ClCCN(Cc1ccccc1)Cc1ccccc1
4. C[C@]12CCC(=O)C(O)=C1CC[C@@H]1[C@@H]2CC[C@]2(C)C(=O)CC[C@@H]12
5. C[C@]12CCC(=O)C[C@@H]1CC[C@@H]1[C@@H]2CC[C@]2(C)[C@@H](O)CC[C@@H]12

Ans.
1. 23.9
2. 10.8
3. -20.1
4. -1.4
5. -21

---

# SYSTEM_UNDER_TEST: BTK (Homo sapiens, UniProt Q06187)
# ASSAY_NAME: biochemical
# ASSAY_CONDITIONS: read-out: BTK inhibition (%), 0.75 uM BTK, […] probe 3l, 15 min preincubation
READOUT_LABEL: inhibition at 10 µM

# count of solved cases: 5
OC(Cn1cncn1)(Cn1cncn1)c1ccc(F)cc1F [PCM-0086230] :: 9.3%
CC(O)[C@H](C)[C@H](N)C(=O)O (stereo partly drawn) [PCM-0216361] :: -2.6%
Cn1cncc1[C@@](N)(c1ccc(Cl)cc1)c1ccc2c(c1)c(-c1cccc(Cl)c1)cc(=O)n2C [PCM-0095125] :: 17.9%
CCCCOc1ccc(CC(=O)NO)cc1 [PCM-0085771] :: 6.9%
CCOC(=O)C1=C(C)NC(C)=C(C(=O)OC)C1c1cccc([N+](=O)[O-])c1 (stereo not drawn) [PCM-0064714] :: -28%

Batch of 4 compounds: report inhibition at 10 µM for each.
1. CC1(C)CC[C@]2(C(=O)O)CC[C@]3(C)C(=CC[C@@H]4[C@@]5(C)CC[C@H](O)[C@@](C)(CO)[C@@H]5CC[C@]43C)[C@@H]2C1 [PCM-0215046]
2. O=C(O)CSc1nnc(Br)n1-c1ccc(C2CC2)c2ccccc12 [PCM-0214823]
3. C=C1CCC[C@]2(C)C=C3OC(=O)C(C)=C3C[C@@H]12 [PCM-0215796]
4. CC[C@@H]1/C=C(\C)C[C@H](C)C[C@H](OC)[C@H]2O[C@@](O)(C(=O)C(=O)N3CCCC[C@H]3C(=O)O[C@H](/C(C)=C/[C@@H]3CC[C@@H](O)[C@H](OC)C3)[C@H](C)[C@@H](O)CC1=O)[C@H](C)C[C@@H]2OC [PCM-0215308]

Ans.
["15.6%", "-21.8%", "-4.1%", "6.9%"]

Reference for the values: paper PMC8041284
